Source of measurements: PubChem BioAssay AID2202554

Tested on: S. typhimurium/E. coli reverse mutation, colony counts
Experiment: Bacterial reverse mutation test (aka Ames test) summary data;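 also: His-minus Salmonella and trp-minus E. coli WP2 uvrA pKM101 with or without liver S9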
Inconclusive results are not listed. Activity calls are given as the source filed them. No rule for the calls is given here.
Outcome codes: 1 = active, 0 = inactive

OCC(O)CI (stereo not given) | 1
CC(=O)C1(C)CC2=C(CCCC2(C)C)CC1C (stereo not given) | 0
CCc1ccccc1N | 0
NC(N)=NC(N)=NCCc1ccccc1 | 0
Cc1ccc2oc(=O)ccc2c1 | 0
CCS(=O)CCSP(=O)(OC)OC (stereo not given) | 1
Cc1cccc(N)c1 | 0
O=C(O)CCCC(=O)O | 0
Clc1ccccc1Cl | 0
Nc1ccccc1S(=O)(=O)O | 1

* * *

Tested on: S. typhimurium/E. coli reverse mutation, colony counts
Test: Bacterial reverse mutation test (aka Ames test) summary data;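 also: His-minus Salmonella and trp-minus E. coli WP2 uvrA pKM101 with or without liver S9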
Records with an inconclusive call do not appear. Active and inactive are the calls of the source. The rule behind the calls is not given here.
Outcome codes: active, inactive

CCNc1cccc(O)c1 | active
O=c1c(-c2ccc(O)cc2)coc2cc(O)cc(O)c12 | active
O=Cc1ccc(CO)o1 | active
Cc1ccc(O)c(C)c1 | active
CC(C)(C)OC=O | inactive
CCOP(=S)(OCC)Oc1cc(C)nc(C(C)C)n1 | inactive
CC(C)=CCC1CCCC1=O (configuration not stated) | inactive
O=C(O)C(F)(F)C(F)(F)C(F)(F)C(F)(F)C(F)(F)C(F)(F)C(F)(F)C(F)(F)F | inactive
NC(=O)CCCCC(N)=O | inactive
CN(C(=O)CN(CCO)CC(=O)N(C)C(C)(C)Cc1ccccc1)C(C)(C)Cc1ccccc1 | inactive
O=C1NC(=O)c2cc([N+](=O)[O-])ccc21 | active
C=C(C)C(=O)OCCC | inactive
Oc1ccc(Cl)cc1 | inactive
O=[N+]([O-])c1ccccc1C(F)(F)F | inactive
CC(=O)C=Cc1ccccc1 | active
c1ccc2c(c1)Oc1ccccc1S2 | inactive
C=CCCCC | inactive

* * *

Test system: S. typhimurium/E. coli reverse mutation, colony counts
Assay: Bacterial reverse mutation test (aka Ames test) summary data;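 also: His-minus Salmonella and trp-minus E. coli WP2 uvrA pKM101 with or without liver S9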
Inconclusive results are not listed. The source made the active and inactive calls. No rule for the calls is given here.
Outcome codes: True (active), False (inactive)

OCC1CCC(CO)CC1 (stereo unspecified) | False
CN(C)C(=S)SSC(=S)N(C)C | True
Nc1nc2ncc(CNc3ccc(C(=O)N[C@@H](CCC(=O)O)C(=O)O)cc3)nc2c(=O)[nH]1 | False
FC(F)(F)C(F)(F)I | True
CNNCc1ccc(C(=O)NC(C)C)cc1 | False
O=C(O)c1cc(Cl)cc(Cl)c1 | False
CC(=O)Nc1ccc(C)cc1 | True
c1ccc(N(c2ccccc2)c2ccccc2)cc1 | False
S=P(N1CC1)(N1CC1)N1CC1 | True
Nc1cc(Cl)cc(S(=O)(=O)O)c1O | False
CCN(CC)N=O | True
CCCCCCCCCCCCCCC1CO1 (stereo unspecified) | False
CN(C)CCN(Cc1cccs1)c1ccccn1 | False
CN1CCC[C@H]1c1cccnc1 | False
CCOC(=O)OCC | False
O=C(O)c1ccc([N+](=O)[O-])cc1 | True

* * *

Tested on: S. typhimurium/E. coli reverse mutation, colony counts
Assay: Bacterial reverse mutation test (aka Ames test) summary data;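 also: His-minus Salmonella and trp-minus E. coli WP2 uvrA pKM101 with or without liver S9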
Records with an inconclusive call do not appear. Activity calls are given as the source filed them. The rule behind the calls is not given here.
Outcome codes: YES = active, NO = inactive

O=c1[nH]cnc2[nH]ncc12 | YES
Cc1ccc(C)cc1 | NO
COc1ccccc1O | NO
CNc1ccc(O)cc1 | YES
COc1ccc2c(c1OC)C(=O)O[C@@H]2[C@H]1c2cc3c(cc2CCN1C)OCO3 | NO
CCC(C)(C)OC | NO
ClC=CCCl | YES
CCN(Cc1ccccc1)c1ccccc1 | NO
